Just for reference, patent US12589092B2 is where these values come from.

ASSAY COMMENT: Pharmacokinetic study in rats (intragastrical administration, plasma LC-MS/MS)
CONDITIONS: male, SD, rat, po, 3 mg/kg
List of log10 of Cmax values.
Record value = log10 of Cmax given in ng/mL.

Consider the reported log10 of Cmax for these compounds:
- COMPOUND: "CC(=O)c1c(C)c2cnc(Nc3ccc4c(c3)OC[C@@H]3CN(C5CCNCC5)CCN43)nc2n(C2CCCC2)c1=O [Compound 3S]"
  QUANTITY KIND: "log10 of Cmax"
  TEST RESULT: 1.93
- COMPOUND: "CCN1CCC(N2CCN3c4ccc(Nc5ncc6c(C)c(C(C)=O)c(=O)n(C7CCCC7)c6n5)cc4OC[C@@H]3C2)CC1 [Compound 4S]"
  QUANTITY KIND: "log10 of Cmax"
  TEST RESULT: 2.40
- COMPOUND: "CC(=O)c1c(C)c2cnc(Nc3ccc4c(c3)OC[C@@H]3CN(C5CCN(C6CC6)CC5)CCN43)nc2n(C2CCCC2)c1=O [Compound 6S]"
  QUANTITY KIND: "log10 of Cmax"
  TEST RESULT: 1.74
- COMPOUND: "CC(=O)c1c(C)c2cnc(Nc3ccc4c(c3)OCC3CNCCN43)nc2n(C2CCCC2)c1=O (stereo not shown) [Ref-B, reference compound]"
  QUANTITY KIND: "log10 of Cmax"
  TEST RESULT: 1.14
- COMPOUND: "CC(=O)c1c(C)c2cnc(Nc3ccc4c(c3)OC[C@@H]3CN(C5CN(S(C)(=O)=O)C5)CCN43)nc2n(C2CCCC2)c1=O [Compound 14S]"
  QUANTITY KIND: "log10 of Cmax"
  TEST RESULT: 2.65

## Input # query: log10 of Cmax of entry CC(=O)c1c(C)c2cnc(Nc3ccc4c(c3)OC[C@@H]3CN(C5CCOCC5)CCN43)nc2n(C2CCCC2)c1=O [Compound 1S]
## Output 1.57

## Input # input compound: CC(=O)c1c(C)c2cnc(Nc3cc(F)c4c(c3)OC[C@@H]3CN(C5CCN(C)CC5)CCN43)nc2n(C2CCCC2)c1=O [Compound 9S] ; wanted: its log10 of Cmax
## Output 1.63

## Input Report log10 of Cmax for CC(=O)c1c(C)c2cnc(Nc3ccc4c(c3)OC[C@H]3CN(C5CCN(C(C)=O)CC5)CCN43)nc2n(C2CCCC2)c1=O [Compound 5R] please.
## Output 2.64

## Input What value of log10 of Cmax has been recorded for this entry: CC(=O)c1c(C)c2cnc(Nc3ccc4c(c3)OC[C@@H]3CN(C5CN(C)C5)CCN43)nc2n(C2CCCC2)c1=O [Compound 7S]
## Output 2.12

## Input Quick one: log10 of Cmax for CC(=O)c1c(C)c2cnc(Nc3ccc4c(c3)OC[C@@H]3CN(C5CN(C(C)=O)C5)CCN43)nc2n(C2CCCC2)c1=O [Compound 11S] ?
## Output 2.63

## Input I have this compound here, CC(=O)c1c(C)c2cnc(Nc3ccc4c(c3)OC[C@@H]3CN(C5COC5)CCN43)nc2n(C2CCCC2)c1=O [Compound 13S] , and I need its recorded log10 of Cmax.
## Output 2.23

## Input Need log10 of Cmax, item CC(=O)c1c(C)c2cnc(Nc3ccc4c(c3)OC[C@H]3CN(C5CCOCC5)CCN43)nc2n(C2CCCC2)c1=O [Compound 1R]
## Output 1.64

## Input Value lookup for log10 of Cmax; key = CC(=O)c1c(C)c2cnc(Nc3ccc4c(c3)OC[C@@H]3CN(C5CCN(C(C)=O)CC5)CCN43)nc2n(C2CCCC2)c1=O [Compound 5S]
## Output 2.42
